Target chain: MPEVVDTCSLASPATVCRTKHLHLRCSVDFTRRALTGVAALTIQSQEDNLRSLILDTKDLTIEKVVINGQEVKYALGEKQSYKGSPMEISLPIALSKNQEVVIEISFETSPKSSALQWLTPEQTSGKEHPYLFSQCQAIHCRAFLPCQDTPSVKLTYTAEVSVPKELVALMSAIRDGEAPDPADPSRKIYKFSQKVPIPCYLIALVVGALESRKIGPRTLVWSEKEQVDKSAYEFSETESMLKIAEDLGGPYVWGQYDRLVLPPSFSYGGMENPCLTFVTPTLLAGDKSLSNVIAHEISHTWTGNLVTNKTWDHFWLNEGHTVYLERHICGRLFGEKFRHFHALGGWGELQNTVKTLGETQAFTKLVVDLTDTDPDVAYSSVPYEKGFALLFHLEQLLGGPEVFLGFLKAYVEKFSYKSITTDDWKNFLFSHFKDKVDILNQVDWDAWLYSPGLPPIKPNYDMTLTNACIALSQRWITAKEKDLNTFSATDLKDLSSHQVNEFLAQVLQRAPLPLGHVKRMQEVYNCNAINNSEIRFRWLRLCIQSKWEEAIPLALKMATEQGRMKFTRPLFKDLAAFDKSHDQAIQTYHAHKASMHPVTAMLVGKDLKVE
Please provide measured IC50 for the entries that follow.
One number for each entry, in µM.

Worked examples, 3 molecules total:
molecule="CCCCc1ccc(CS[C@H]2C[C@@H](C(=O)O)N(C(=O)[C@H](C)CS)C2)cc1 [Compound f]" numeric_readout=0.031
molecule="CC(C)c1ccc(CCS[C@H]2C[C@@H](C(=O)O)N(C(=O)[C@H](C)CS)C2)cc1 [Compound c]" numeric_readout=0.79
molecule="Cc1ccccc1CS[C@H]1C[C@@H](C(=O)O)N(C(=O)[C@H](C)CS)C1 [Compound a]" numeric_readout=0.84

Alright, here's another molecule for you.
Lookup result for CC(C)c1ccc(CS[C@@H]2C[C@@H](C(=O)O)N(C(=O)[C@H](C)CS)C2)cc1 [Compound d] ; measured IC50: 0.29
